systemTested: 5-hydroxytryptamine receptor 2C (Homo sapiens) (UniProt P28335)
protocolDetails: Binding to human 5HT2C receptor expressed in CHO cells relative to 5HT
Assay type: cell-based
Threshold 80%. Efficacy below it: satisfied. Efficacy at it or above: not satisfied.

Look over these answered cases.
COc1ccccc1CN[C@@H](C)Cn1ccc2ccc3ncccc3c21 | satisfied
C[C@@H](Cn1ccc2ccc3ncccc3c21)NCc1ccccc1Cl | not satisfied

Could you please tell me whether Efficacy recorded for C[C@@H](Cn1ccc2ccc3ncccc3c21)NCc1ccc2ccccc2c1 is less than 80%?
not satisfied

Would you kindly verify if Efficacy of C=CCN[C@@H](C)Cn1ccc2ccc3ncccc3c21 is strictly less than 80%?
not satisfied

Given Clc1cccc(N2CCNCC2)c1 , is recorded Efficacy strictly lower than 80%?
not satisfied

Dear reviewer, please state whether C[C@H](N)Cn1ccc2ccc3cnccc3c21 has Efficacy strictly beneath 80%.
not satisfied

====

systemTested: 5-hydroxytryptamine receptor 2C (Homo sapiens, UniProt P28335)
Sequence (P28335 whole entry): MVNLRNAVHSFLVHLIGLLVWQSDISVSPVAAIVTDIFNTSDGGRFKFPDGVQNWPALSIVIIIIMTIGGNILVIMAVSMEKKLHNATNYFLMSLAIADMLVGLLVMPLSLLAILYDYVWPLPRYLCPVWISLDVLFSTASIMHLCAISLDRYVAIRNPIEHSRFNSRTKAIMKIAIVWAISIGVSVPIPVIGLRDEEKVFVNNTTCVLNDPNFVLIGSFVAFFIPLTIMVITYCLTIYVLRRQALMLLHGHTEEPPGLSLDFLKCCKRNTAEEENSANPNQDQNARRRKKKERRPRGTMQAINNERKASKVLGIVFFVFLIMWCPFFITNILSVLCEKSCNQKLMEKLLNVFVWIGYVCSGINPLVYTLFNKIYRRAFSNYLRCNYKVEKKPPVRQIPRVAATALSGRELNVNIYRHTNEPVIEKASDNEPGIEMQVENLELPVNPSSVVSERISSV
protocolDetails: Binding to human 5HT2C receptor expressed in CHO cells
readoutKind: EC50 (nM)
Numbers only, in nM.

Reference set, count: 10
C[C@@H](Cn1ccc2ccc3ncccc3c21)NCc1ccccc1Cl | 74
C[C@@H](Cn1ccc2ccc3ncccc3c21)NCc1ccccc1 | 200
C[C@H](N)Cn1ccc2ccc3ccncc3c21 | 73
C=CCN[C@@H](C)Cn1ccc2ccc3ncccc3c21 | 257
Cc1ccccc1CN[C@@H](C)Cn1ccc2ccc3ncccc3c21 | 219
C[C@H](N)Cn1ccc2ccc3ncccc3c21 | 2.9
C[C@@H](Cn1ccc2ccc3ncccc3c21)NCC1CCCCC1 | 348
C[C@@H](Cn1ccc2ccc3ncccc3c21)NCc1ccc2c(c1)OCO2 | 42
COc1ccccc1CN[C@@H](C)Cn1ccc2ccc3ncccc3c21 | 551
C[C@H](N)Cn1ccc2cc(Cl)c3ncccc3c21 | 6.9

List the reported EC50 of each molecule below.
1. C[C@@H](Cn1ccc2ccc3ncccc3c21)NCc1ccc2ccccc2c1
2. C[C@H](N)Cn1ccc2ccc3cnccc3c21
3. C[C@H](N)Cn1ccc2ccc3cccnc3c21

1. 52
2. 297
3. 97

====

For each record, write down the corresponding EC50.
systemTested: 5-hydroxytryptamine receptor 2B (Homo sapiens, UniProt P41595)
Sequence (P41595 whole entry): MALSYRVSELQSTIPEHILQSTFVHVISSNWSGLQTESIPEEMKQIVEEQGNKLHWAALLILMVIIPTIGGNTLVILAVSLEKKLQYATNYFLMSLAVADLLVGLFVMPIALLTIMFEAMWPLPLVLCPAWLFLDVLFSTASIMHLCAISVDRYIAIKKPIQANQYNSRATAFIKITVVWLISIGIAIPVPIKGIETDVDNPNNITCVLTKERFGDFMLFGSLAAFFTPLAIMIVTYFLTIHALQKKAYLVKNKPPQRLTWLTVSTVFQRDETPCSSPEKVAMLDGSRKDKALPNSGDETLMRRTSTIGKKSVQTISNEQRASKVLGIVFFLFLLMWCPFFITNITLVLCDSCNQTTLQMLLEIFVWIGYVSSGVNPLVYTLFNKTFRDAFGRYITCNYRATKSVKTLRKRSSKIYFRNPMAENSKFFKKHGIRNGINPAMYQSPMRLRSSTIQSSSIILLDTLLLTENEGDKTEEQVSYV
protocolDetails: Binding to human 5HT2B receptor expressed in CHO cells
Give bare numbers, in nM.

Cc1ccccc1CN[C@@H](C)Cn1ccc2ccc3ncccc3c21 | 128
C[C@H](N)Cn1ccc2ccc3ccncc3c21 | 62
COc1ccccc1CN[C@@H](C)Cn1ccc2ccc3ncccc3c21 | 462
C[C@@H](Cn1ccc2ccc3ncccc3c21)NCc1ccc2ccccc2c1 | 27
C[C@H](N)Cn1ccc2ccc3cnccc3c21 | 152
C[C@H](N)Cn1ccc2cc(Cl)c3ncccc3c21 | 2.1
C=CCN[C@@H](C)Cn1ccc2ccc3ncccc3c21 | 91
C[C@@H](Cn1ccc2ccc3ncccc3c21)NCc1ccccc1 | 97

Could you tell me EC50 for each of these compounds? They are listed below.
1. C[C@@H](Cn1ccc2ccc3ncccc3c21)NCc1ccc2c(c1)OCO2
2. C[C@@H](Cn1ccc2ccc3ncccc3c21)NCC1CCCCC1
3. C[C@@H](Cn1ccc2ccc3ncccc3c21)NCc1ccccc1Cl
4. C[C@H](N)Cn1ccc2ccc3ncccc3c21
5. C[C@H](N)Cn1ccc2ccc3cccnc3c21

[20, 128, 44, 1.1, 45]
